molecular target: TYK2 (Homo sapiens, UniProt P29597); construct: 5 μl of catalytic domain recombinant Kinase enzyme+Tyr peptide substrate (Invitrogen, Calif.); assay: Z'-LYTE kinase assay, TYK2 tyrosine phosphorylation activity
Sequence (P29597 897-1176 limits assumed): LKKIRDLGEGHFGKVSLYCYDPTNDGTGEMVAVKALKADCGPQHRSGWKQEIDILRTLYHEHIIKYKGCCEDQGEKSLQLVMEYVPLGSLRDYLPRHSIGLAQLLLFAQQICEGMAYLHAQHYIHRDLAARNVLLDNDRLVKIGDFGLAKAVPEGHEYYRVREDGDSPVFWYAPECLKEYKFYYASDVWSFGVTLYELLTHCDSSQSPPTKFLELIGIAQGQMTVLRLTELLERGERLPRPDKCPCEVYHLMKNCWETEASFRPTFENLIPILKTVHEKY
Listed here: items and their measured IC50.

Any idea what its IC50 is? The compound is COCC(=O)Nc1cccc(Nc2ncc(C(N)=O)c(NC(C)C)n2)c1
10 to 100 nM

Any idea what its IC50 is? The compound is CC(=O)Nc1cccc(Nc2ncc(C(N)=O)c(NCc3ccc4c(c3)OCO4)n2)c1
10 to 100 nM

Any idea what its IC50 is? The compound is NC(=O)c1cnc(Nc2cccc(NC(=O)[C@@H]3CCCO3)c2)nc1NCc1ccccc1
1 to 10 nM

Any idea what its IC50 is? The compound is CC(=O)Nc1cccc(Nc2ncc(C(N)=O)c(Nc3cccc4c3cnn4C)n2)c1
10 to 100 nM

Any idea what its IC50 is? The compound is NC(=O)c1cnc(Nc2cccc(NC(=O)[C@H]3CCCO3)c2)nc1NCc1ccccc1
1 to 10 nM

Any idea what its IC50 is? The compound is CC(=O)Nc1cccc(Nc2ncc(C(N)=O)c(NC[C@H](C)O)n2)c1
10 to 100 nM

Any idea what its IC50 is? The compound is COCC(=O)Nc1ccc(F)c(Nc2ncc(C(N)=O)c(NCc3ccccc3)n2)c1
100 to 1000 nM

Any idea what its IC50 is? The compound is C[C@@H](Nc1nc(Nc2ccc(Cl)c(NC(=O)NC3CCC3)c2)ncc1C(N)=O)c1ccccc1
100 to 1000 nM
